# system-tested: T1, human ASGR-1 (wild type) (human, UniProt P07306 1-291)
# T1 construct: also called wt ASGR1; huASGR-1
# T1 sequence: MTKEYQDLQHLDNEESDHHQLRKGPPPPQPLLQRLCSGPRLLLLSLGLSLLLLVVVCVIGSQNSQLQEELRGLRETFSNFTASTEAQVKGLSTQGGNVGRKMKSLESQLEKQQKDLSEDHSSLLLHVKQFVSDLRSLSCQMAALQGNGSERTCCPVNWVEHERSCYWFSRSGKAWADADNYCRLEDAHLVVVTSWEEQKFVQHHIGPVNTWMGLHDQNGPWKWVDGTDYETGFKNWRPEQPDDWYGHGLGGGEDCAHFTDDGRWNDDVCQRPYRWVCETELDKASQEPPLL
# assay-comment: flow cytometry, CHO-S:huASGR-1 cells, 11-point titration
pEC50: −log10 of the molar value.
Would you please tag the item Condition met when its pEC50 is 9 or above, and Condition not met when it is below?

{"binder": "48B12 (antibody, V domains shown, mAb) VH: EVQLLESGGGLVQPGGSLRLSCAASGFTFSSYAMNWVRQAPGKGLEWVSAISGRGGNTFYADSVKGRFTISRDNSKNTLYLQMNSLRAEDTAVYYCAKRETYNWNYEGFDYWGQGTLVTVSS VL: SYELTQPPSVSVSPGQTARITCSGDALPKKYAYWYQQKSGQAPVLVIYEDSKRPSGIPERFSGSSSGTMATLTISGAQVEDEADYYCNSTDSSGNHVVFGGGTKLTVL", "assigned-label": "Condition not met"}
{"binder": "194C1 (antibody, V domains shown, mAb) VH: QVQLVESGGGVVQPGRSLRLSCAASGFTFSSYGMHWVRQAPGKGLEWVAVIWYDGSNEHYADSVKGRFTISRDNSKNTLYLQMNSLRAEDTAVYYCARNRGVGYYGLDVWGQGTTVTVSS VL: DIQMTQSPSSLSASVGDRVTITCRASQGISNYLAWFQQKPGKAPKSLIYAASSLQSGVPSKFSGSGSGTDFTLTISSLQPEDFATYYCLHYLTYPLTFGGGTKVEIK", "assigned-label": "Condition met"}
{"binder": "7F4 (antibody, V domains shown, mAb) VH: QLQLQESGPGLVKPSETLSLTCTVSGGSISRSSYYWGWIRQPPGKGLEWIGNIYYSGATYYNPSLKSRVTISVDTSTNQFSLKLSSVTAADTAVYYCARHSGSWSLDYWGQGTLVTVSS VL: DIQMTQSPSSLSASVGDRVTITCRTSQGIRNDLGWYQQKPGKAPKRLIYAASNLQSGVPSRFSGSGSGTEFTLTISSLQPEDFATYYCLQHSAYPLTFGGGTKVEIK", "assigned-label": "Condition not met"}
{"binder": "5E5 (antibody, V domains shown, mAb) VH: QVQLVESGGGVVQPGRSLRLSCAASGFTFSNYVMHWVRQAPGKGLEWVAVIWYDGSNKYYADSVKGRFTISRDNSKNTLYLQMNSLRAEDTAVYYCTREVYSSGWYDYGMDVWGQGTTVTVSS VL: DIQMTQSPSSLSASVGDRVTITCRASQGIRNDLGWYQQKPGKAPKRLIYAASSLQSGVPSRFSGSGSGTEFTLTISSLQPEDFATYYCLQHYSYPRTFGQGTKVEVK", "assigned-label": "Condition not met"}
{"binder": "198G3 (antibody, V domains shown, mAb) VH: QVQLVESGGGVVQPGRSLKLSCAASGFTFSTYGMHWVRQAPGKGLEWVAVIWYDGTNKNYADSVKGRFTISRDNSKNTLCLQMNSLRAEDTAVYYCARDQGVGYDGLDVWGQGTTVTVSS VL: DIQMAQSPSSLSASVGDRVTITCRTSQGIGKYLAWFQQKPGKAPKSLLYKASSLQGGVPSKFSGSGSGTDFTLTISSLQPEDFATYYCQQYMTYPLTFGGGTKVEIK", "assigned-label": "Condition met"}
{"binder": "218G4 (antibody, V domains shown, mAb) VH: QVQLVESGGGVVQPGRSLRLSCAASGFTFSSYGLHWVRQAPGKGLEWVAVIWYDGSNKYYADSVKGRFTISRDNSKNTLYLQMNSLRVEDTAVYYCANWYYYYYGMDVWGQGTTVTVSS VL: QSVLTQPPSVSAAPGQKVTISCSGSSSNIGNNYVSWYQQLPGTAPKLLLYDSNKRPSGIPARFSGSKSGTSATLGITGLQTGDEADYYCGTWDSSLNTVVFGGGTKLTVL", "assigned-label": "Condition not met"}
{"binder": "197G3 (antibody, V domains shown, mAb) VH: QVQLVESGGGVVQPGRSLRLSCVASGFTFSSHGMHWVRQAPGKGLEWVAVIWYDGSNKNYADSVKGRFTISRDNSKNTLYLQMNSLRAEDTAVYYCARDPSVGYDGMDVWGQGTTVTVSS VL: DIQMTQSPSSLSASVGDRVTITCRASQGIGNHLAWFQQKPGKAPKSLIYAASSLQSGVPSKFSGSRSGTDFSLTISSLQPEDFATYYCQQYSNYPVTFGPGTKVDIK", "assigned-label": "Condition met"}

# credit: patent US20190248902A1
